tested on: Haemophilus influenzae; test: Antimicrobial activity against beta-lactamase negative Haemophilus influenzae expressing […] gene assessed as resistant isolates by microdilution method; format: functional
Measured endpoint: Activity (%)
Give the value in % but do not write % after it.

// worked examples, Activity included
                                   compound  unit_abbreviation  data_value
0  CC1(C)S[C@@H]2[C@H](NC(=O)[C@H](N)c3ccccc3)C(=O)N2[C@H]1C(=O)O [AMPICILLIN]                  %          30
1  C=CC1=C(C(=O)O)N2C(=O)[C@@H](NC(=O)/C(=N\O)c3csc(N)n3)[C@H]2SC1 [CEFDINIR]                  %          40
2  CO/N=C(\C(=O)N[C@@H]1C(=O)N2C(C(=O)O)=C(COC(N)=O)CS[C@H]12)c1ccco1 [CEFUROXIME]                  %          20
3  CO/N=C(\C(=O)N[C@@H]1C(=O)N2C(C(=O)O)=C(COC(C)=O)CS[C@H]12)c1csc(N)n1 [CEFOTAXIME]                  %           0

// next entry
Task item: Which Activity reading was recorded for the compound N[C@@H](C(=O)N[C@@H]1C(=O)N2C(C(=O)O)=C(Cl)CS[C@H]12)c1ccccc1 [CEFACLOR ANHYDROUS] ?
Reply: 40

----------
test system: Haemophilus influenzae; assay: Antimicrobial activity against beta-lactamase negative, ampicillin-resistant Haemophilus influenzae expressing […] mutant gene by microdilution method; type: functional
Recorded measurements of MIC90, one per entry
# unit: µg/mL | format: bare number

Sample answers from the record:
In [3]: df
Out[3]:
                               smiles_entry            assay_system  data_value
0  C=CC1=C(C(=O)O)N2C(=O)[C@@H](NC(=O)/C(=N\O)c3csc(N)n3)[C@H]2SC1  Haemophilus influenzae           8
1  CO/N=C(\C(=O)N[C@@H]1C(=O)N2C(C(=O)O)=C(COC(C)=O)CS[C@H]12)c1csc(N)n1  Haemophilus influenzae         0.5

Task item: Endpoint output: MIC90 of `CO/N=C(\C(=O)N[C@@H]1C(=O)N2C(C(=O)O)=C(COC(N)=O)CS[C@H]12)c1ccco1` . Value?
Reply: 16

Task item: Same thing, different molecule: `CC1(C)S[C@@H]2[C@H](NC(=O)[C@H](N)c3ccccc3)C(=O)N2[C@H]1C(=O)O`
Reply: 4

Task item: `CO/N=C(\C(=O)N[C@@H]1C(=O)N2C(C(=O)OCOC(=O)C(C)(C)C)=C(/C=C\c3scnc3C)CS[C@H]12)c1csc(N)n1` , same question.
Reply: 0.06

----------
test system: Haemophilus influenzae; test: Antimicrobial activity against beta-lactamase negative Haemophilus influenzae expressing […] gene by microdilution method; format: functional
Measured endpoint: MIC90 (µg/mL)
# value in µg/mL; strip the unit string

>>> df
                                   compound            assay_system  measured_endpoint  data_value
0  CO/N=C(\C(=O)N[C@@H]1C(=O)N2C(C(=O)O)=C(COC(N)=O)CS[C@H]12)c1ccco1 [CEFUROXIME]  Haemophilus influenzae              MIC90           8
1  N[C@@H](C(=O)N[C@@H]1C(=O)N2C(C(=O)O)=C(Cl)CS[C@H]12)c1ccccc1 [CEFACLOR ANHYDROUS]  Haemophilus influenzae              MIC90          32
2  CO/N=C(\C(=O)N[C@@H]1C(=O)N2C(C(=O)O)=C(COC(C)=O)CS[C@H]12)c1csc(N)n1 [CEFOTAXIME]  Haemophilus influenzae              MIC90        0.25
3  CO/N=C(\C(=O)N[C@@H]1C(=O)N2C(C(=O)OCOC(=O)C(C)(C)C)=C(/C=C\c3scnc3C)CS[C@H]12)c1csc(N)n1 [CEFDITOREN PIVOXIL]  Haemophilus influenzae              MIC90        0.06
4  CC1(C)S[C@@H]2[C@H](NC(=O)[C@H](N)c3ccccc3)C(=O)N2[C@H]1C(=O)O [AMPICILLIN]  Haemophilus influenzae              MIC90           2

Kindly consider the entry below.
Task item: Given the entry C=CC1=C(C(=O)O)N2C(=O)[C@@H](NC(=O)/C(=N\O)c3csc(N)n3)[C@H]2SC1 [CEFDINIR] , what MIC90 was observed with Haemophilus influenzae?
Reply: 4
